OUTCOME_MEASURE: pIC50
Lab note: report pIC50 as minus log10 of the concentration in molar units, number only.

Qu. Provide the documented pIC50 with Leucine-rich repeat serine/threonine-protein kinase 2 (Homo sapiens, UniProt Q5S007) as the system for O=C(Nc1nc2ccc(F)cc2s1)c1ccc(Cl)cc1
Sequence (Q5S007 whole entry): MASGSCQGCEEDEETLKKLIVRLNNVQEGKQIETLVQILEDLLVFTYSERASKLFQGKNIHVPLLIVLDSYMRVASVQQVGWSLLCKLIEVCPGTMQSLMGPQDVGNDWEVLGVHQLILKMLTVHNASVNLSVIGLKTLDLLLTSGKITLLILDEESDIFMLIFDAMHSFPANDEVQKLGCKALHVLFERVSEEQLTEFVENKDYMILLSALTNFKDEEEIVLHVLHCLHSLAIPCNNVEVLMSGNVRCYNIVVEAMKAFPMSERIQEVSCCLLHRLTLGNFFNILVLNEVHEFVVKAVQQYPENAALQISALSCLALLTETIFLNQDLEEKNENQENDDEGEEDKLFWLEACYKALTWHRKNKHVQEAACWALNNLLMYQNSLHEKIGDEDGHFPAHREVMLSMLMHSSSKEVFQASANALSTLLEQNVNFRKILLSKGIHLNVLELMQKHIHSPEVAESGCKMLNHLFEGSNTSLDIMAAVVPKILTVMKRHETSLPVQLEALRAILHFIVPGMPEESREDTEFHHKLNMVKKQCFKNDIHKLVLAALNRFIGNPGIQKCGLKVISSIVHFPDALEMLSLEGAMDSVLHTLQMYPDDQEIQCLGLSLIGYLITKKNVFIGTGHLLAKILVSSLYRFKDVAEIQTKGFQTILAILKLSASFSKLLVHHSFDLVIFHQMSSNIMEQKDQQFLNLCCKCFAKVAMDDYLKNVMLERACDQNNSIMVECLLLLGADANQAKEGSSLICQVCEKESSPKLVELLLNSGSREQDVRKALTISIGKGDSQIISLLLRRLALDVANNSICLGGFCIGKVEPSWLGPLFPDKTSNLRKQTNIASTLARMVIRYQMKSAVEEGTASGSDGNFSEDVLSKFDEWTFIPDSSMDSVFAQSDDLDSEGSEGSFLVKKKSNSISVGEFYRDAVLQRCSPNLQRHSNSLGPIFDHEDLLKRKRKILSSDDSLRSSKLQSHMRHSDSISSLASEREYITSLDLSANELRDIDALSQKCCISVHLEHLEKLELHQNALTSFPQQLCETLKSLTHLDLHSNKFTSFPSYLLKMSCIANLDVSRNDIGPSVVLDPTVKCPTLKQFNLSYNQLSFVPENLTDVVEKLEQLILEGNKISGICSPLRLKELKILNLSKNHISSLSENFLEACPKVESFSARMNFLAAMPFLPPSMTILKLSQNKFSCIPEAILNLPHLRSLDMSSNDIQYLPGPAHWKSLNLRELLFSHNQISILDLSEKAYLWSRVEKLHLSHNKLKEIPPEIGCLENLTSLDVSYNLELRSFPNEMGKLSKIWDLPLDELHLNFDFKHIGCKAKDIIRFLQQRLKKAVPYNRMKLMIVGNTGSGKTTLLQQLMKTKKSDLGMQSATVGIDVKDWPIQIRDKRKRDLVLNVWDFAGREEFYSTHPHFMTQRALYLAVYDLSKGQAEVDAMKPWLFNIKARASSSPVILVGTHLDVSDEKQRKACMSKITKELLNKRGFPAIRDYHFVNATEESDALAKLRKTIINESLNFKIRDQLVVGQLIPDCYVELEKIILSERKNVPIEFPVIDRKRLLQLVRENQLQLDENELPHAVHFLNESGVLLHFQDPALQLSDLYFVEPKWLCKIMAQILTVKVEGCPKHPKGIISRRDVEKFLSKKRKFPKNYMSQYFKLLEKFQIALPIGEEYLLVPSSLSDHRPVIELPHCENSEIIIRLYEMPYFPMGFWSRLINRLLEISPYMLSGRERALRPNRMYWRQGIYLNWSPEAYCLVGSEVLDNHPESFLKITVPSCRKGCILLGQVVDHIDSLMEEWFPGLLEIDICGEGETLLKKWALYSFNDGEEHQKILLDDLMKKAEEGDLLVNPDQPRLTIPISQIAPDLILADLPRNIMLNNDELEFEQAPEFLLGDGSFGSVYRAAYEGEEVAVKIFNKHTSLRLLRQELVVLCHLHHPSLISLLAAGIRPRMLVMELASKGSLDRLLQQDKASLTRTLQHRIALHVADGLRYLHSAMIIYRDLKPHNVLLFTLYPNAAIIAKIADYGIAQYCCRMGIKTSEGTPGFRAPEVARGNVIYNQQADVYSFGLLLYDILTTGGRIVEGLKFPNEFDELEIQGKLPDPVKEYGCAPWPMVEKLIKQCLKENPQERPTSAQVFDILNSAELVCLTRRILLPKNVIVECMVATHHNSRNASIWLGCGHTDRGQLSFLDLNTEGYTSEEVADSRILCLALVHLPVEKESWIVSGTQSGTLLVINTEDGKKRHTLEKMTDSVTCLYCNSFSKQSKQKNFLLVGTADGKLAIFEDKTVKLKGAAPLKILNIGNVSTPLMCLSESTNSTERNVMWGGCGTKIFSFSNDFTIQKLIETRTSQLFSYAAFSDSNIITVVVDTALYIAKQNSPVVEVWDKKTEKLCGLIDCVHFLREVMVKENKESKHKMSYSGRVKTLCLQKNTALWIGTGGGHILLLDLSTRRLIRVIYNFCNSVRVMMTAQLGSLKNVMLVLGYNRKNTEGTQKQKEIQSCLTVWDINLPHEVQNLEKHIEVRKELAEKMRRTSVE
Ans. 5.35

Qu. Provide the documented pIC50 with Leucine-rich repeat serine/threonine-protein kinase 2 (Homo sapiens, UniProt Q5S007) as the system for O=C(Nc1nc2ccc(F)cc2s1)c1ccc(N2CCOCC2)cc1
Ans. 6.77

Qu. Provide the documented pIC50 with Leucine-rich repeat serine/threonine-protein kinase 2 (Homo sapiens, UniProt Q5S007) as the system for Cc1ccc2nc(NC(=O)c3ccc(N4CCOCC4)cc3)sc2c1
Ans. 6.32

Qu. Provide the documented pIC50 with Leucine-rich repeat serine/threonine-protein kinase 2 (Homo sapiens, UniProt Q5S007) as the system for CC(C)c1ccc2nc(NC(=O)c3ccc(N4CCOCC4)cc3)sc2c1
Ans. 5.46

Qu. Provide the documented pIC50 with Leucine-rich repeat serine/threonine-protein kinase 2 (Homo sapiens, UniProt Q5S007) as the system for O=C(Nc1nc2ccc(C(F)(F)F)cc2s1)c1ccc(N2CCOCC2)cc1
Ans. 5.64

Qu. Provide the documented pIC50 with Leucine-rich repeat serine/threonine-protein kinase 2 (Homo sapiens, UniProt Q5S007) as the system for O=C(Nc1nc2ccc(Br)cc2s1)c1ccc(N2CCOCC2)cc1
Ans. 6.29

Qu. Provide the documented pIC50 with Leucine-rich repeat serine/threonine-protein kinase 2 (Homo sapiens, UniProt Q5S007) as the system for O=C(Nc1nc2ccc(F)cc2s1)c1ccccc1
Ans. 6.28

Qu. Provide the documented pIC50 with Leucine-rich repeat serine/threonine-protein kinase 2 (Homo sapiens, UniProt Q5S007) as the system for Cc1cc(-c2ccc3nc(Nc4ccccc4)nn3c2)cc(C)c1O
Ans. 7.70

Qu. Provide the documented pIC50 with Leucine-rich repeat serine/threonine-protein kinase 2 (Homo sapiens, UniProt Q5S007) as the system for O=C(Nc1nc2ccc(Cl)cc2s1)c1ccc(N2CCOCC2)cc1
Ans. 6.43

Qu. Provide the documented pIC50 with Leucine-rich repeat serine/threonine-protein kinase 2 (Homo sapiens, UniProt Q5S007) as the system for CCOc1ccc2nc(NC(=O)c3ccc(N4CCOCC4)cc3)sc2c1
Ans. 6.52
